Listed binders paired with reported Anti-CD28 Fab signal (phage binding ELISA)
- subject.of.test: T1, Anti-CD28 Fab (SEQ ID NOs: 696, 697)
- T1 construct: Biotinylated Fab captured on neutravidin coated plates in the phage ELISA
- assay.procedure: phage ELISA; biotinylated anti-CD28 Fab on neutravidin plate, bound phage detected with anti-M13 HRP antibody
Field format: numeric only.

See these solved cases before continuing.
binder="YCDGHTGVYFYKCL (not shown: fused to the pIII filament protein of the bacteriophage) [Phage-784]" readout_value=1.87
binder="YCEGHMSEYMAKCL (not shown: fused to the pIII filament protein of the bacteriophage) [Phage-775]" readout_value=1.88
binder="YCDGHLPEYMRKCL (not shown: fused to the pIII filament protein of the bacteriophage) [Phage-780]" readout_value=1.88
binder="YCEGHSLEYMAKCL (not shown: fused to the pIII filament protein of the bacteriophage) [Phage-777]" readout_value=1.88
binder="YCEGHLPEYMMKCL (not shown: fused to the pIII filament protein of the bacteriophage) [Phage-779]" readout_value=1.88

Prompt line: Query: Anti-CD28 Fab signal (phage binding ELISA); subject: YCEGHRSEYMAKCL (not shown: fused to the pIII filament protein of the bacteriophage) [Phage-786]
Response line: 1.86

Prompt line: Requested read-out: Anti-CD28 Fab signal (phage binding ELISA). Entry: YCEGHSYEYMWKCL (not shown: fused to the pIII filament protein of the bacteriophage) [Phage-778]
Response line: 1.88

Prompt line: Please look up its Anti-CD28 Fab signal (phage binding ELISA): YCEGHSWEYIGKCL (not shown: fused to the pIII filament protein of the bacteriophage) [Phage-782]
Response line: 1.87

src = patent US20260242478A1
